// data source = patent US20190106460A1

Quick list: Ki per entry.
Molecular target: T1, Beta Transducin repeat-containing protein (βTrCP), tag cleaved and complexed with Skp1 (UniProt Q9Y297 175-605; P63208 1-163)
T1 construct: the FP protocol says that Ki is determined from FP dose-response curves; also called βTrCP/Skp1
T1 sequence (Q9Y297 175-605, chain 1 of 2): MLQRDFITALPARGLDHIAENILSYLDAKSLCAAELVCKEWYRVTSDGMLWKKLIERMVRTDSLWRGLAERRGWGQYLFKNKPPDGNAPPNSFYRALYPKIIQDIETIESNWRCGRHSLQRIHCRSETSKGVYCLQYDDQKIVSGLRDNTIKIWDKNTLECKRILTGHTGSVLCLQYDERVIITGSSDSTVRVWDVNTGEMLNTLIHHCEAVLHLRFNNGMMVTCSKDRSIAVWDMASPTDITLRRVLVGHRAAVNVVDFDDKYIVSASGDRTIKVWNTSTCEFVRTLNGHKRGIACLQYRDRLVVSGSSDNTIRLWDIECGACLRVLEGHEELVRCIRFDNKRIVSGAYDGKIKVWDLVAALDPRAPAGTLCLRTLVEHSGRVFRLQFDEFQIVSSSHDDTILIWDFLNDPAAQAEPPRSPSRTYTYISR
T1 sequence (P63208 whole entry, chain 2 of 2): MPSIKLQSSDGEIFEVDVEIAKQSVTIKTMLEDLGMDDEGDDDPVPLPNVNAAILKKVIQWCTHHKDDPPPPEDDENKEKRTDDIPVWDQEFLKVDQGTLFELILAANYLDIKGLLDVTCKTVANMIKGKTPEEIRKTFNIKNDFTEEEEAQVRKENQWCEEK
Assay: FP competition dose-response, fluorescein-IkB peptide tracer on βTrCP/Skp1 (average Ki; assay not given)
Non-standard residues stand in square brackets, D forms with d. *: point of attachment. Benzenesulfonyl(4-OMe) = COc1ccc(S(=O)(=O)*)cc1; Phe(3-F) = N[C@@H](Cc1cccc(F)c1)C(=O)O; Ahx = NCCCCCC(=O)O

binder | Ki [nM]
{Benzenesulfonyl(4-OMe)}-[dD]EG[Phe(3-F)]WE[Ahx]K(4‑chlorobenzoyl)-NH2 (also called UBP060) [4-(MeO)PhSO2-dEGF(3F)WE-Ahx-K(NHCO-(4-(Cl)-Ph))-NH2] | 3.64
{Benzenesulfonyl(4-OMe)}-[dD]EG[Phe(3-F)]WE[Ahx]K-NH2 (not fully specified (residue 8); printed as 4-(MeO)PhSO2-dEGF(3F)WE-Ahx-K(NHCO-CH2CH2Ch(CH3)2)-NH2, also called UBP068) [4-(MeO)PhSO2-dEGF(3F)WE-Ahx-K(NHCO-CH2CH2Ch(CH3)2)-NH2] | 5.38
